Each entry below carries its reported drug sensitivity score.
Tested on: CAL-85-1
test protocol: drug sensitivity score (DSS), CellTiter-Glo (DSS (AUC-based score)); higher = stronger drug effect (viability inhibition or cytotoxicity); extreme values may be limits of the assay
condition notes: incubation time: 72 h
Lab note: write the figure by itself, no unit.

Reference set, count: 3
- Cc1cc(Nc2cc(CN3CCOCC3)c3nc(C)c(Cc4ccc(Cl)cc4F)n3n2)n[nH]1: 4.82
- CCc1c2c(nc3ccc(OC(=O)N4CCC(N5CCCCC5)CC4)cc13)-c1cc3c(c(=O)n1C2)COC(=O)[C@]3(O)CC: 0
- c1ccc2c(CCNc3ccc(Nc4ccncc4)cc3)c[nH]c2c1: 1.35

For COc1cc(O)c2c(c1)/C=C/C[C@H](O)[C@H](O)C(=O)/C=C\C[C@H](C)OC2=O on CAL-85-1, measured drug sensitivity score was 12.4
